Parameter: Anti-PSMA Fab (SEQ ID NOs: 19, 20) signal. Scope: all listed entries.
system: T1, Anti-PSMA Fab (SEQ ID NOs: 19, 20)
T1 construct: Biotinylated and captured on neutravidin coated plates in the phage ELISA; also called 006 PSMA Fab
experiment_description: phage binding ELISA; biotinylated Fab on neutravidin plate, clonal phage detected with anti-M13 HRP
API note: the answer field is a bare number with no unit suffix.

Report Anti-PSMA Fab (SEQ ID NOs: 19, 20) signal for LEKWCTPPWMCMGF [Phage-2276] please.
1.52

Report Anti-PSMA Fab (SEQ ID NOs: 19, 20) signal for IEKWCIPQWMCSAA [Phage-2278] please.
1.52

Report Anti-PSMA Fab (SEQ ID NOs: 19, 20) signal for IPRMCTPAWMCEWS [Phage-2279] please.
1.51

Report Anti-PSMA Fab (SEQ ID NOs: 19, 20) signal for HQNWCIPAWMCHGM [Phage-2271] please.
1.53

Report Anti-PSMA Fab (SEQ ID NOs: 19, 20) signal for IIKWCKPLWMCESI [Phage-2277] please.
1.52

Report Anti-PSMA Fab (SEQ ID NOs: 19, 20) signal for AENWCRPSWMCEGF [Phage-2268] please.
1.53

Report Anti-PSMA Fab (SEQ ID NOs: 19, 20) signal for GINWCIPPWMCQSE [Phage-2273] please.
1.52

Report Anti-PSMA Fab (SEQ ID NOs: 19, 20) signal for GEKWCIPSWMCEIT [Phage-2275] please.
1.52
